The measurements presented in this section are drawn from the Immune Epitope Database (IEDB).

target: HLA-A*69:01; assay: IEDB peptide-MHC binding, purified MHC/direct/fluorescence; filed as Kd, often an IC50 or EC50 that approximates it; bounds were set here for any values at or beyond the usual limits of such assays; conditions: source organism: Entamoeba histolytica HM-1:IMSS
pKd: −log10 of the molar value.
Property: pKd

Look at this sequence and give its reported pKd. GMLECGFPT
≤ 5.30

* * *

molecular target: HLA-B*15:01; assay: IEDB peptide-MHC binding, purified MHC/direct/fluorescence; filed as Kd, often an IC50 or EC50 that approximates it; bounds were set here for any values at or beyond the usual limits of such assays; conditions: source organism: Giardia intestinalis
Property: pKd
API: returns pKd as number; meaning -log10 of concentration in mol/L.

# get_value(readout= pKd, system= HLA-B*15:01) for DYAMHGTVF
5.42

* * *

target: HLA-A*02:03; assay: IEDB peptide-MHC binding, purified MHC/competitive/radioactivity; filed as Kd, often an IC50 or EC50 that approximates it; bounds were set here for any values at or beyond the usual limits of such assays; details: source organism: Mammarenavirus brazilense
Property: Kd (nM)
Form entry: value (nM) — number only.

Residue sequence	Tested target	Kd, nM
YNYSLSAAV	HLA-A*02:03	67.2

Lookup: Kd / HLA-A*02:03 / AINIALIAV
46.7

* * *

molecular target: HLA-A*11:01; test: IEDB peptide-MHC binding, purified MHC/direct/fluorescence; filed as Kd, often an IC50 or EC50 that approximates it; bounds were set here for any values at or beyond the usual limits of such assays; settings: source organism: Shigella sonnei Ss046
Property: Kd (µM)
Give just the number in µM; leave the unit off.

Could you share which Kd value was measured for VLDMGDPVK ?
7

* * *

biological target: HLA-B*40:01; assay: IEDB peptide-MHC binding, purified MHC/direct/fluorescence; filed as Kd, often an IC50 or EC50 that approximates it; bounds were set here for any values at or beyond the usual limits of such assays; conditions: source organism: Marburg virus - Musoke, Kenya, 1980
Property: Kd

Residue sequence	Kd
ISDPLTSGL	≥ 20 µM

Shifting focus to the sequence that follows.
Dear colleague, I am looking for the recorded Kd of the following sequence: IHLDKGGQF
≥ 20 µM

* * *

target: HLA-B*08:01; assay: IEDB peptide-MHC binding, purified MHC/competitive/fluorescence; bounds were set here for any values at or beyond the usual limits of such assays; conditions: source organism: Variola virus
Property: IC50

Give the measured IC50 of LSLPRIALV .
≥ 285 µM

* * *

target: HLA-A*11:01; test: IEDB peptide-MHC binding, purified MHC/direct/fluorescence; filed as Kd, often an IC50 or EC50 that approximates it; bounds were set here for any values at or beyond the usual limits of such assays; details: source organism: Influenza A virus (A/swine/Italy/809/1989(H3N2))
Property: Kd

Any idea what its Kd is? The sequence is EEIRRIWRQ
≥ 20 µM

* * *

target: HLA-B*18:01; assay: IEDB peptide-MHC binding, purified MHC/direct/fluorescence; filed as Kd, often an IC50 or EC50 that approximates it; bounds were set here for any values at or beyond the usual limits of such assays; conditions: source organism: Cryptosporidium parvum Iowa II
Property: Kd

Any idea what Kd was measured for RAIMTTWTV ?
≥ 20 µM

* * *

target: HLA-B*18:01; assay: IEDB peptide-MHC binding, purified MHC/direct/fluorescence; filed as Kd, often an IC50 or EC50 that approximates it; bounds were set here for any values at or beyond the usual limits of such assays; conditions: source organism: Influenza A virus (A/swine/Italy/809/1989(H3N2))
Property: Kd (µM)
Express your answer in µM, writing the number without its unit.

Which measured Kd value corresponds to EEIRRIWRQ ?
9.02
